# Organism: Oryctolagus cuniculus
# METHOD_SUMMARY: Inhibition of platelet aggregation using collagen as activating agent in rabbit platelet rich plasma (PRP)
# Assay type: functional
REPORTED_METRIC: EC50 (nM)

Reference set, count: 5
CCOC(=O)CCCOc1ccc2[nH]c3nc(O)nc-3cc2c1 : 20
O=C(CCCOc1ccc2[nH]c3nc(O)nc-3cc2c1)NC1CCCC1 : 4
COC(=O)CCCOc1ccc2nc3c(cc2c1)n(C)c(=O)n3C : 54700
CCOC(=O)C1CCN(C(=O)CCCOc2ccc3[nH]c4nc(O)nc-4cc3c2)CC1 : 90
O=c1[nH]c2cc3cc(OCCCS(=O)(=O)c4ccccc4)ccc3nc2[nH]1 : 50

1: COC(=O)CCCOc1ccc2nc3c(cc2c1)nc(O)n3C
2: O=C(O)COc1ccc2[nH]c3nc(O)nc-3cc2c1
3: CN(C(=O)CCCOc1ccc2[nH]c3nc(O)nc-3cc2c1)C1CCCCCC1
4: OCCCc1ccc2[nH]c3nc(O)nc-3cc2c1
5: OCC(O)COc1ccc2[nH]c3nc(O)nc-3cc2c1 (stereo not drawn)
# sort list by recorded EC50, greatest to least # format: label list in the order the request specifies 2, 4, 1, 5, 3
